- measurement.target: ATP-dependent translocase ABCB1 (Homo sapiens)
- Sequence (P08183 whole entry): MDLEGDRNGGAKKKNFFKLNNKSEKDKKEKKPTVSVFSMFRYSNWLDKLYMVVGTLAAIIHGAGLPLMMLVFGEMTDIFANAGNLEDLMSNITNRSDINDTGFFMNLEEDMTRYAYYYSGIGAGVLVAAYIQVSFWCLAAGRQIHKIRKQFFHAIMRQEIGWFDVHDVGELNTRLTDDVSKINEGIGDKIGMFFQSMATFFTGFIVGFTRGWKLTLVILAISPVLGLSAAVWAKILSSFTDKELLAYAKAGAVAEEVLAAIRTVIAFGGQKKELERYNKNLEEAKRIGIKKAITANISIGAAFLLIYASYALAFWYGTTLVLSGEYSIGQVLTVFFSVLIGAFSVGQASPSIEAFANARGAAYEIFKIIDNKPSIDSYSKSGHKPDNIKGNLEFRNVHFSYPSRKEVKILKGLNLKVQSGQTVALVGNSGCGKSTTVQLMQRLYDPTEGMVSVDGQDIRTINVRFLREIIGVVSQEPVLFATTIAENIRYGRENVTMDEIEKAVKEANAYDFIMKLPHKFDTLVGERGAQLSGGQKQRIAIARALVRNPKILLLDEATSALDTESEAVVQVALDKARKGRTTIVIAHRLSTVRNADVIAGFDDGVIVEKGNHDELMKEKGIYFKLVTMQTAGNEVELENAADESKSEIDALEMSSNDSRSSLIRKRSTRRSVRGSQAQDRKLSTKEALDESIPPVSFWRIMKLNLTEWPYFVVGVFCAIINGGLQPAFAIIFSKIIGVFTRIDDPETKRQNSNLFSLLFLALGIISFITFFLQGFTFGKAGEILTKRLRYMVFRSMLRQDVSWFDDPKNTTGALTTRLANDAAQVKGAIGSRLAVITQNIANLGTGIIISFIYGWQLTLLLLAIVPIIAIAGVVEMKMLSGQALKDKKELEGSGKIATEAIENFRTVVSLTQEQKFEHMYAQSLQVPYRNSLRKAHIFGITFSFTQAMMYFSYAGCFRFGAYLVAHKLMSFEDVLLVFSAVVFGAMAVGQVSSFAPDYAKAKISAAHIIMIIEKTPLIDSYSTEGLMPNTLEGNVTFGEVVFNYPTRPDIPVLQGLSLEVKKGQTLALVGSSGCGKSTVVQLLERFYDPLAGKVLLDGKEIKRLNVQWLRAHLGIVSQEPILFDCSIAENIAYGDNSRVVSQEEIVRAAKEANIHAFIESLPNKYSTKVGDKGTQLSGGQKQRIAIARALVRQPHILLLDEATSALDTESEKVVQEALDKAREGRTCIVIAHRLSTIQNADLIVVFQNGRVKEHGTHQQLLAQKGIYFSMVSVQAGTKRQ
- experiment.description: Inhibition of P-glycoprotein by Hoechst assay
Each entry below carries its recorded IC50.
parameter: IC50

1) COc1ccc(C(=O)Nc2ccccc2C(=O)Nc2ccc(CCN3CCc4cc(OC)c(OC)cc4C3)cc2)cc1OC = 331 nM
2) COC(=O)[C@H]1[C@H]2C[C@@H]3c4[nH]c5cc(OC)ccc5c4CCN3C[C@H]2C[C@@H](OC(=O)c2cc(OC)c(OC)c(OC)c2)[C@@H]1OC [RESERPINE] = 3020 nM
3) COc1cc2c(cc1OC)CN(CCc1ccc(NC(=O)c3ccccc3NC(=O)c3ccccc3)cc1)CC2 = 513 nM
4) O=C(Nc1ccccc1C(=O)Nc1ccc(CCN2CCc3ccccc3C2)cc1)c1cnc2ccccc2c1 = 355 nM
